# TARGET OF ASSAY: human DPP1 enzyme (Homo sapiens)
# Sequence (P53634 25-134 limits assumed): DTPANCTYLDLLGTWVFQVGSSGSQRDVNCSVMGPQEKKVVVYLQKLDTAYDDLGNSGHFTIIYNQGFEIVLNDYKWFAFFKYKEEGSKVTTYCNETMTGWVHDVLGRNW
# Sequence (P53634 231-394 limits assumed): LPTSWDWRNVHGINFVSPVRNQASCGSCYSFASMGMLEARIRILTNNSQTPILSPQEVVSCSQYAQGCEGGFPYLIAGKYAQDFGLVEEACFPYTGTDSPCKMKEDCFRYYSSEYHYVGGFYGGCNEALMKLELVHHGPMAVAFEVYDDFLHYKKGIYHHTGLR
# Sequence (P53634 395-463 limits assumed): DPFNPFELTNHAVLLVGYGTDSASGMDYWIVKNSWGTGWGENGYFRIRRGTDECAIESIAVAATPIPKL
# ASSAY SUMMARY: Human DPP1 Enzyme IC50 Assay
# Assay type: biochemical
# Design: was first proteolytically processed into its mature form using recombinant human cathepsin L; purchased R&D Systems
# CONDITION NOTES: activated recombinant human DPP1, 400 μM H-Gly-Arg-AMC, 10 minutes pre-incubation at 37° C., pH 6.0; average of n runs; read-out: Avg. IC50 (Human DPP1 enzyme IC50 value ranges)
pIC50: −log10 of the molar value.
ENDPOINT LABEL: pIC50

# MOLECULE, RESULT VALUE
rows = [
    ("C[C@@H]1NC[C@@H](C(=O)N[C@H](C#N)Cc2ccc(-c3ccc4c(n3)CCCN4)cc2)OC[C@@H]1O [Compound A105]", "< 7.82"),
    ("Cc1cn2cc(-c3cc4sc(C[C@@H](C#N)NC(=O)[C@@H]5CNCCCCO5)cc4s3)cc2c(C)n1 (single isomer, unassigned) [Compound A30]", "< 7.82"),
    ("N#C[C@H](Cc1ccc(-c2cnc3c(c2)NCCC3)cc1)NC(=O)[C@@H]1CNCCCO1 [Compound A41]", "< 7.82"),
    ("Cn1c(=O)oc2cc3c(cc21)-c1cc(F)c(CC(C#N)NC(=O)[C@@H]2CNCCCCO2)cc1OC3 (stereo partly drawn) [Compound C5]", "> 8.30"),
    ("CO[C@H]1CCO[C@H](C(=O)N[C@H](C#N)Cc2ccc(-c3ccc4oc(=O)n(C)c4c3)s2)CNC1 [Compound F3]", "< 7.82"),
]

Entry N#C[C@H](Cc1ccc(-c2ccc3c(c2)[C@]2(CCCN(C#N)C2)SC3)cc1)NC(=O)[C@@H]1CNCCCO1 [Compound I15] needs its pIC50 filled in; supply it.
< 7.82

Entry C[C@@H]1NC[C@@H](C(=O)N[C@H](C#N)Cc2ccc(-c3ccc4c(c3)CCC(=O)N4C)cc2F)OC[C@@H]1O [Compound A154] needs its pIC50 filled in; supply it.
7.82 to 8.30

----------
Reported pIC50 values are given for each entry in this list.
# TARGET OF ASSAY: human DPP1 enzyme (Homo sapiens)
# ASSAY SUMMARY: Human DPP1 Enzyme IC50 Assay
# Assay type: biochemical
# Design: was first proteolytically processed into its mature form using recombinant human cathepsin L; purchased R&D Systems
# CONDITION NOTES: activated recombinant human DPP1, 400 μM H-Gly-Arg-AMC, 10 minutes pre-incubation at 37° C., pH 6.0; average of n runs; read-out: Avg. IC50 (Human DPP1 enzyme IC50 value ranges)
pIC50: −log10 of the molar value.

Consider the worked cases shown below.
# MOLECULE, pIC50
records = [
    ("N#C[C@H](Cc1ccc(-c2ccc3c(c2)[C@]2(CCCN(c4ccsc4)C2)SC3)cc1)NC(=O)[C@@H]1CNCCCO1 [Compound I13]", "< 7.82"),
    ("CN1CCN(S(=O)(=O)c2ccc(-c3ccc(C[C@@H](C#N)NC(=O)[C@@H]4CNCCCO4)cc3)cc2)CC1 [Compound 20]", "< 7.82"),
    ("CO[C@@H]1CCNC[C@@H](C(=O)N[C@H](C#N)Cc2ccc(-c3ccc4c(c3)CCC(=O)N4C)cc2F)OC1 [Compound A151]", "> 8.30"),
]

Below: the item to evaluate.
Entry Cn1c(=O)oc2cc3c(cc21)-c1cc(F)c(C[C@@H](C#N)NC(=O)[C@@H]2CNCCCCO2)cc1SC3 [Compound C8] needs its pIC50 filled in; supply it.
> 8.30
